- System: Helicoverpa armigera
- CONDITION_NOTES: in vivo
The reader will find reported mortality(%) Helicoverpa armigera (500 μg/mL) values listed item by item below.
MEASURED_QUANTITY: mortality(%) Helicoverpa armigera (500 μg/mL)

{"TEST_SMILES": "C=CCNC(=N[N+](=O)[O-])NN=Cc1ccccc1Cl", "OBSERVED_MEASUREMENT": "40%"}
{"TEST_SMILES": "CCCC=NNC(=N[N+](=O)[O-])NCc1ccc(Cl)nc1", "OBSERVED_MEASUREMENT": "40%"}
{"TEST_SMILES": "CCCCC=NNC(=N[N+](=O)[O-])NCc1ccc(Cl)nc1", "OBSERVED_MEASUREMENT": "70%"}
{"TEST_SMILES": "O=[N+]([O-])N=C(NCc1ccccc1)NN=Cc1ccccc1Cl", "OBSERVED_MEASUREMENT": "50%"}
{"TEST_SMILES": "CCOc1ccc(C=NNC(=N[N+](=O)[O-])NCc2ccccc2)cc1OC", "OBSERVED_MEASUREMENT": "40%"}
{"TEST_SMILES": "C#CCNC(=N[N+](=O)[O-])NN=Cc1ccc(F)cc1", "OBSERVED_MEASUREMENT": "50%"}
{"TEST_SMILES": "COc1ccccc1C=NNC(=N[N+](=O)[O-])NCc1ccc(Cl)nc1", "OBSERVED_MEASUREMENT": "40%"}
{"TEST_SMILES": "CCCCNC(=N[N+](=O)[O-])NN=Cc1ccccc1Cl", "OBSERVED_MEASUREMENT": "0%"}
{"TEST_SMILES": "CCCNC(=N[N+](=O)[O-])NN=CC=C(C)CCC=C(C)C", "OBSERVED_MEASUREMENT": "50%"}
{"TEST_SMILES": "CCCNC(=N[N+](=O)[O-])NN=Cc1ccccc1Cl", "OBSERVED_MEASUREMENT": "10%"}
{"TEST_SMILES": "CCCNC(=N[N+](=O)[O-])NN=Cc1ccc(F)cc1", "OBSERVED_MEASUREMENT": "20%"}
{"TEST_SMILES": "C=CCNC(=N[N+](=O)[O-])NN=Cc1ccc(F)cc1", "OBSERVED_MEASUREMENT": "40%"}
{"TEST_SMILES": "C=CCNC(=N[N+](=O)[O-])NN=CC=C(C)CCC=C(C)C", "OBSERVED_MEASUREMENT": "0%"}
{"TEST_SMILES": "CN(C)c1ccc(C=NNC(=N[N+](=O)[O-])NCc2ccccc2)cc1", "OBSERVED_MEASUREMENT": "30%"}
{"TEST_SMILES": "O=[N+]([O-])N=C(NCc1ccc(Cl)nc1)NN=Cc1ccco1", "OBSERVED_MEASUREMENT": "10%"}
{"TEST_SMILES": "CC(C)C=NNC(=N[N+](=O)[O-])NCc1ccc(Cl)nc1", "OBSERVED_MEASUREMENT": "60%"}
{"TEST_SMILES": "CCCNC(=N[N+](=O)[O-])NN=Cc1ccc(OCC)c(OC)c1", "OBSERVED_MEASUREMENT": "20%"}
{"TEST_SMILES": "COc1ccc(C=NNC(=N[N+](=O)[O-])NCc2ccc(Cl)nc2)cc1", "OBSERVED_MEASUREMENT": "10%"}
{"TEST_SMILES": "C=CCNC(=N[N+](=O)[O-])NN=Cc1ccc(N(C)C)cc1", "OBSERVED_MEASUREMENT": "50%"}
{"TEST_SMILES": "CC(C)=CCCC(C)=CC=NNC(=N[N+](=O)[O-])NCc1ccc(Cl)nc1", "OBSERVED_MEASUREMENT": "30%"}
{"TEST_SMILES": "CCCCNC(=N[N+](=O)[O-])NN=Cc1ccc(OCC)c(OC)c1", "OBSERVED_MEASUREMENT": "40%"}
{"TEST_SMILES": "CCNC(=N[N+](=O)[O-])NN=Cc1ccc(N(C)C)cc1", "OBSERVED_MEASUREMENT": "30%"}
{"TEST_SMILES": "CC=CC=NNC(=N[N+](=O)[O-])NCc1ccc(Cl)nc1", "OBSERVED_MEASUREMENT": "30%"}
{"TEST_SMILES": "O=[N+]([O-])N=C(NCc1ccc(Cl)nc1)NN=Cc1ccc(F)cc1", "OBSERVED_MEASUREMENT": "40%"}
{"TEST_SMILES": "O=[N+]([O-])N=C(NCc1ccc(Cl)nc1)NN=Cc1ccccc1Cl", "OBSERVED_MEASUREMENT": "0%"}
{"TEST_SMILES": "C#CCNC(=N[N+](=O)[O-])NN=CC=C(C)CCC=C(C)C", "OBSERVED_MEASUREMENT": "20%"}
{"TEST_SMILES": "CCCNC(=N[N+](=O)[O-])NN=Cc1ccc(N(C)C)cc1", "OBSERVED_MEASUREMENT": "40%"}
{"TEST_SMILES": "CCCCNC(=N[N+](=O)[O-])NN=CC=C(C)CCC=C(C)C", "OBSERVED_MEASUREMENT": "40%"}
{"TEST_SMILES": "C#CCNC(=N[N+](=O)[O-])NN=Cc1ccccc1Cl", "OBSERVED_MEASUREMENT": "50%"}
{"TEST_SMILES": "CC(C)=CCCC(C)=CC=NNC(=N[N+](=O)[O-])NCc1ccccc1", "OBSERVED_MEASUREMENT": "20%"}
{"TEST_SMILES": "CNC(=N[N+](=O)[O-])NN=CC=C(C)CCC=C(C)C", "OBSERVED_MEASUREMENT": "30%"}

====

- System: asparagus caterpillar
- CONDITION_NOTES: in vivo
Entries and their measured mortality(%) asparagus caterpillar (500 μg/mL) follow.
MEASURED_QUANTITY: mortality(%) asparagus caterpillar (500 μg/mL)

{"TEST_SMILES": "CCCNC(=N[N+](=O)[O-])NN=Cc1ccc(F)cc1", "OBSERVED_MEASUREMENT": 90}
{"TEST_SMILES": "CCCNC(=N[N+](=O)[O-])NN=CC(C)C", "OBSERVED_MEASUREMENT": 20}
{"TEST_SMILES": "CC=CC=NNC(=N[N+](=O)[O-])NCc1ccccc1", "OBSERVED_MEASUREMENT": 20}
{"TEST_SMILES": "CCCC=NNC(=N[N+](=O)[O-])NCc1ccccc1", "OBSERVED_MEASUREMENT": 50}
{"TEST_SMILES": "CCCCCCC=NNC(=N[N+](=O)[O-])NCc1ccccc1", "OBSERVED_MEASUREMENT": 0}
{"TEST_SMILES": "CCNC(=N[N+](=O)[O-])NN=Cc1ccc(N(C)C)cc1", "OBSERVED_MEASUREMENT": 80}
{"TEST_SMILES": "CNC(=N[N+](=O)[O-])NN=CC(C)C", "OBSERVED_MEASUREMENT": 40}
{"TEST_SMILES": "O=[N+]([O-])N=C(NCc1ccc(Cl)nc1)NN=Cc1ccccc1Cl", "OBSERVED_MEASUREMENT": 40}
{"TEST_SMILES": "C#CCNC(=N[N+](=O)[O-])NN=CCCCC", "OBSERVED_MEASUREMENT": 10}
{"TEST_SMILES": "CCCC=NNC(=N[N+](=O)[O-])NCCC", "OBSERVED_MEASUREMENT": 10}
{"TEST_SMILES": "C=CC=NNC(=N[N+](=O)[O-])NCC", "OBSERVED_MEASUREMENT": 40}
{"TEST_SMILES": "C=CCNC(=N[N+](=O)[O-])NN=Cc1ccccc1Cl", "OBSERVED_MEASUREMENT": 70}
{"TEST_SMILES": "C#CCNC(=N[N+](=O)[O-])NN=CCCCCCC", "OBSERVED_MEASUREMENT": 0}
{"TEST_SMILES": "CC=CC=NNC(=N[N+](=O)[O-])NCCC", "OBSERVED_MEASUREMENT": 70}
{"TEST_SMILES": "CCCNC(=N[N+](=O)[O-])NN=Cc1ccc(OCC)c(OC)c1", "OBSERVED_MEASUREMENT": 50}
{"TEST_SMILES": "C=CCNC(=N[N+](=O)[O-])NN=CCCC", "OBSERVED_MEASUREMENT": 40}
{"TEST_SMILES": "CC(C)=CCCC(C)=CC=NNC(=N[N+](=O)[O-])NCc1ccc(Cl)nc1", "OBSERVED_MEASUREMENT": 40}
{"TEST_SMILES": "CC=CC=NNC(=N[N+](=O)[O-])NCC", "OBSERVED_MEASUREMENT": 0}
{"TEST_SMILES": "C#CCNC(=N[N+](=O)[O-])NN=CC=C", "OBSERVED_MEASUREMENT": 20}
{"TEST_SMILES": "CCCCNC(=N[N+](=O)[O-])NN=Cc1ccccc1Cl", "OBSERVED_MEASUREMENT": 80}
{"TEST_SMILES": "CCCNC(=N[N+](=O)[O-])NN=CC=C(C)CCC=C(C)C", "OBSERVED_MEASUREMENT": 60}
{"TEST_SMILES": "C=CCNC(=N[N+](=O)[O-])NN=CC=CC", "OBSERVED_MEASUREMENT": 60}
{"TEST_SMILES": "C#CCNC(=N[N+](=O)[O-])NN=CC(C)C", "OBSERVED_MEASUREMENT": 60}
{"TEST_SMILES": "CCCNC(=N[N+](=O)[O-])NN=Cc1ccccc1Cl", "OBSERVED_MEASUREMENT": 50}
{"TEST_SMILES": "C=CCNC(=N[N+](=O)[O-])NN=Cc1ccccc1OC", "OBSERVED_MEASUREMENT": 80}
{"TEST_SMILES": "CCCCC=NNC(=N[N+](=O)[O-])NCc1ccc(Cl)nc1", "OBSERVED_MEASUREMENT": 20}
{"TEST_SMILES": "CCCCCCC=NNC(=N[N+](=O)[O-])NCc1ccc(Cl)nc1", "OBSERVED_MEASUREMENT": 0}
{"TEST_SMILES": "CCCCNC(=N[N+](=O)[O-])NN=CC=C(C)CCC=C(C)C", "OBSERVED_MEASUREMENT": 60}
{"TEST_SMILES": "CCC=NNC(=N[N+](=O)[O-])NCCC", "OBSERVED_MEASUREMENT": 20}
{"TEST_SMILES": "CC=CC=NNC(=N[N+](=O)[O-])NCc1ccc(Cl)nc1", "OBSERVED_MEASUREMENT": 0}
{"TEST_SMILES": "C=CC=NNC(=N[N+](=O)[O-])NCCCC", "OBSERVED_MEASUREMENT": 10}
{"TEST_SMILES": "CCCNC(=N[N+](=O)[O-])NN=Cc1ccc(N(C)C)cc1", "OBSERVED_MEASUREMENT": 80}
{"TEST_SMILES": "CNC(=N[N+](=O)[O-])NN=CC=C(C)CCC=C(C)C", "OBSERVED_MEASUREMENT": 70}
{"TEST_SMILES": "C=CCNC(=N[N+](=O)[O-])NN=CCC", "OBSERVED_MEASUREMENT": 40}
{"TEST_SMILES": "CCCC=NNC(=N[N+](=O)[O-])NCC", "OBSERVED_MEASUREMENT": 0}
